# study system: T1, PSMA Fab (biotinylated (site not stated))
# T1 construct: also called Anti-PSMA Fab; 006 PSMA Fab
# method: clonal phage ELISA on captured biotinylated PSMA Fab; competitor: PSMA antigen at saturating concentration
For each of the binders below, state its phage binding ELISA signal (Anti-PSMA Fab, wells pre-incubated with PSMA antigen).
One number for each entry.

# count of solved cases: 2
binder	numeric result
ERIWCTPKWMCETF [Phage-2797]	0.0657
TEKWCIPQWMCVRT [Phage-2794]	0.0656

Exercise: Which value of phage binding ELISA signal (Anti-PSMA Fab, wells pre-incubated with PSMA antigen) has been reported for LNNWCTPAWMCVGY [Phage-2796] in the records?
Solution: 0.084
